Biological target: Glucocorticoid receptor (Homo sapiens, UniProt P04150)
Sequence (P04150 whole entry): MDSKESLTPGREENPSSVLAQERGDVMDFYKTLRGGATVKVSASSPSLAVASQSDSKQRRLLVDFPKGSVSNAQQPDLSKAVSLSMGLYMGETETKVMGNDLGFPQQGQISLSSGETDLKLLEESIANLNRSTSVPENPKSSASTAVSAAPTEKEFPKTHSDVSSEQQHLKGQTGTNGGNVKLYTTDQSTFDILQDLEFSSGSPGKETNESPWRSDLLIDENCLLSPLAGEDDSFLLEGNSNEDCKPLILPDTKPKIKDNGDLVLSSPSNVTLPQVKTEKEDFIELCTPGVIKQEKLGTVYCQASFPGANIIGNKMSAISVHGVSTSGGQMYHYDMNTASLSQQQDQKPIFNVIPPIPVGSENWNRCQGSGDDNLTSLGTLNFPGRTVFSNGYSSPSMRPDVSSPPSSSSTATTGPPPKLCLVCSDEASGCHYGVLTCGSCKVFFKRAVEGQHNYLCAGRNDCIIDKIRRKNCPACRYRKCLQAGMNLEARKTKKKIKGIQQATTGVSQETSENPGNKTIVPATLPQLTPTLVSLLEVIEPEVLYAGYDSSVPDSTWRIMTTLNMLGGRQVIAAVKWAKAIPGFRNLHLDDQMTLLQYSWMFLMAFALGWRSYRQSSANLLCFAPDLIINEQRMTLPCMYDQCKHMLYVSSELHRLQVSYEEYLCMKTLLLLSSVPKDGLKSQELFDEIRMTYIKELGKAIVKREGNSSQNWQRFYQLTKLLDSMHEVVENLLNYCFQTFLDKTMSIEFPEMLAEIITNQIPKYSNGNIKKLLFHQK
Experiment: Compound was tested for inhibitory activity towards human glucocorticoid receptor
measure: IC50
Be sure to follow the number with its unit.

Recorded results for 6 compounds are shown here.
C[C@]12Cc3cnn(-c4ccc(F)cc4)c3C=C1CCC[C@@H]2[C@](C)(O)c1ccc(F)cc1: 2.5 nM
C[C@]12Cc3cnn(-c4ccc(F)cc4)c3C=C1CCC[C@@H]2[C@@H](O)Cc1ccc(F)cc1: 2.8 nM
CC(C)(O)[C@H]1CCCC2=Cc3c(cnn3-c3ccc(F)cc3)C[C@@]21C: 1.9 nM
C[C@]12Cc3cnn(-c4ccc(F)cc4)c3C=C1CCC[C@@H]2[C@@H](O)Cc1ccccc1: 4.2 nM
C=CCC[C@H](O)[C@H]1CCCC2=Cc3c(cnn3-c3ccc(F)cc3)C[C@@]21C: 1.1 nM
Cc1ccc(C[C@H](O)[C@H]2CCCC3=Cc4c(cnn4-c4ccc(F)cc4)C[C@@]32C)cc1: 3.4 nM

Given the compound C[C@]12Cc3cnn(-c4ccc(F)cc4)c3C=C1CCC[C@@H]2[C@@H](O)c1ccccc1F , what is its reported IC50?
7.2 nM

Given the compound C[C@]12Cc3cnn(-c4ccc(F)cc4)c3C=C1CCC[C@@H]2[C@](C)(O)c1ccsc1 , what is its reported IC50?
0.8 nM

* * *

Quick record: pIC50, Progesterone receptor (Homo sapiens, UniProt P06401).
pIC50: −log10 of the molar value.

Recorded results for 3 compounds are shown here.
C[C@]12Cc3cnn(-c4ccc(F)cc4)c3C=C1CCC[C@@H]2[C@](C)(O)c1ccc(F)cc1: < 6.00
C[C@]12Cc3cnn(-c4ccc(F)cc4)c3C=C1CCC[C@@H]2[C@H](O)c1ccc(F)cc1: < 6.00
C[C@]12Cc3cnn(-c4ccc(F)cc4)c3C=C1CCC[C@@H]2[C@@H](O)c1ccccc1: 6.18

// switching to the query compound
Given the compound COc1cc([C@H](O)[C@H]2CCCC3=Cc4c(cnn4-c4ccc(F)cc4)C[C@@]32C)cc(F)c1F , what is its reported pIC50?
< 6.00
